Listed next: entries and their corresponding viability, T/C.
System: 323965-272-R-J2-PDC complex spheroid viability
Assay: Anticancer human tumor 323965-272-R-J2-PDC patient-derived pancreatic carcinoma cell line growth inhibition [CLK]
Settings: second compound 0.1 µM; first compound 0.1 µM; hits give low values
From the text: A high-throughput screen of multi-cell type tumor spheroids was designed to identify active combinations of […] and targeted small molecules. Complex spheroids include a stromal component modeled by human endothelial cells (HUVEC) and fibroblasts modeled by human mesenchymal stem cells (MSCs). […] Compounds. […] If the clinical Cmax for an agent had not been determined, the highest concentration tested was 10 microM. […]
Number only, in %; omit the unit.

The cases that follow already have their viability, T/C on record.
{"COMPOUND": "CCN1CCN(Cc2ccc(Nc3ncc(F)c(-c4cc(F)c5nc(C)n(C(C)C)c5c4)n3)nc2)CC1 + CN1CCN(c2cc(C(=O)Nc3cc4cc(-c5cnn(C)c5)ccc4cn3)ccn2)CC1", "viability, T/C [%]": 60.2}
{"COMPOUND": "CC(Nc1ccc2c(c1)OCCn1cc(N3C(=O)OCC3C(F)F)nc1-2)C(N)=O (stereo not drawn) + CN1CCN(c2cc(C(=O)Nc3cc4cc(-c5cnn(C)c5)ccc4cn3)ccn2)CC1", "viability, T/C [%]": 58.3}

Would you kindly look at the next entry?
stdin: Check the records and state viability, T/C for C=CC(=O)N1CCN(c2nc(=O)n(-c3c(C)ccnc3C(C)C)c3nc(-c4c(O)cccc4F)c(F)cc23)C(C)C1 (stereo not drawn) + CNC(=O)c1ccc(Nc2nc(OC3CCCC3)c3c(-c4ccc5nc(C)oc5c4)c[nH]c3n2)c(OC)c1
stdout: 59.5

###

Test system: 323965-272-R-J2-PDC complex spheroid viability
Assay: Anticancer human tumor 323965-272-R-J2-PDC cell line growth inhibition [CLK];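 further: spheroids exposed to agents for seven days before readout; percent of DMSO vehicle control wells so 100% = untreated growth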
Settings: second compound 0.316 µM; first compound 0.0316 µM; hits give low values
# maps each entry to its viability, T/C
Express it in %; write the number only.

Solved entries:
{"MOLECULE": "C=CC(=O)N1CCN(c2nc(=O)n(-c3c(C)ccnc3C(C)C)c3nc(-c4c(O)cccc4F)c(F)cc23)C(C)C1 (stereo not drawn) + CN1CCN(c2cc(C(=O)Nc3cc4cc(-c5cnn(C)c5)ccc4cn3)ccn2)CC1", "ENDPOINT": "viability, T/C", "VALUE MEASURED": 17.9}
{"MOLECULE": "COC1C=CCC(C)C(C)S(=O)(=O)NC(=O)c2ccc3c(c2)N(CC2CCC21)CC1(CCCc2cc(Cl)ccc21)CO3 (stereo not drawn) + CN1CCN(c2cc(C(=O)Nc3cc4cc(-c5cnn(C)c5)ccc4cn3)ccn2)CC1", "ENDPOINT": "viability, T/C", "VALUE MEASURED": 27.5}
{"MOLECULE": "Cn1ncnc1[C@H]1c2n[nH]c(=O)c3cc(F)cc(c23)N[C@@H]1c1ccc(F)cc1 + CNC(=O)c1ccc(Nc2nc(OC3CCCC3)c3c(-c4ccc5nc(C)oc5c4)c[nH]c3n2)c(OC)c1", "ENDPOINT": "viability, T/C", "VALUE MEASURED": 70}
{"MOLECULE": "O=c1[nH]cc(F)c(=O)[nH]1 + CNC(=O)c1ccc(Nc2nc(OC3CCCC3)c3c(-c4ccc5nc(C)oc5c4)c[nH]c3n2)c(OC)c1", "ENDPOINT": "viability, T/C", "VALUE MEASURED": 59.2}

stdin: Provide viability, T/C, tested on 323965-272-R-J2-PDC complex spheroid viability, for CCCS(=O)(=O)Nc1ccc(F)c(C(=O)c2c[nH]c3ncc(-c4ccc(Cl)cc4)cc23)c1F + CN1CCN(c2cc(C(=O)Nc3cc4cc(-c5cnn(C)c5)ccc4cn3)ccn2)CC1 .
stdout: 28.1

stdin: GET viability, T/C | system: 323965-272-R-J2-PDC complex spheroid viability | item: CC(=O)O[C@H]1C(=O)[C@@]2(C)[C@H]([C@H](OC(=O)c3ccccc3)[C@]3(O)C[C@H](OC(=O)[C@H](O)[C@@H](NC(=O)c4ccccc4)c4ccccc4)C(C)=C1C3(C)C)[C@]1(OC(C)=O)CO[C@@H]1C[C@@H]2O + CN1CCN(c2cc(C(=O)Nc3cc4cc(-c5cnn(C)c5)ccc4cn3)ccn2)CC1
stdout: 19.8

stdin: # return viability, T/C of COC1C=CCC(C)C(C)S(=O)(=O)NC(=O)c2ccc3c(c2)N(CC2CCC21)CC1(CCCc2cc(Cl)ccc21)CO3 (stereo not drawn) + CNC(=O)c1ccc(Nc2nc(OC3CCCC3)c3c(-c4ccc5nc(C)oc5c4)c[nH]c3n2)c(OC)c1 (system: 323965-272-R-J2-PDC complex spheroid viability)
stdout: 74.1

stdin: Name the recorded viability, T/C of CC1COCCN1c1cc(C2(S(C)(=N)=O)CC2)nc(-c2ccnc3[nH]ccc23)n1 (stereo not drawn) + CNC(=O)c1ccc(Nc2nc(OC3CCCC3)c3c(-c4ccc5nc(C)oc5c4)c[nH]c3n2)c(OC)c1 , assay system 323965-272-R-J2-PDC complex spheroid viability.
stdout: 58.5

stdin: Report value only: viability, T/C, 323965-272-R-J2-PDC complex spheroid viability, CC(CO)NC(=O)c1cc(-c2ccc(Cl)cc2)nn(-c2cnn(C)c2)c1=O (stereo not drawn) + CN1CCN(c2cc(C(=O)Nc3cc4cc(-c5cnn(C)c5)ccc4cn3)ccn2)CC1
stdout: 25.8
